Reported phosphorylation enrichment values for a set of sequences
# tested-system: EPHB2 (UniProt P29323)
# Sequence (P29323 whole entry, looked up): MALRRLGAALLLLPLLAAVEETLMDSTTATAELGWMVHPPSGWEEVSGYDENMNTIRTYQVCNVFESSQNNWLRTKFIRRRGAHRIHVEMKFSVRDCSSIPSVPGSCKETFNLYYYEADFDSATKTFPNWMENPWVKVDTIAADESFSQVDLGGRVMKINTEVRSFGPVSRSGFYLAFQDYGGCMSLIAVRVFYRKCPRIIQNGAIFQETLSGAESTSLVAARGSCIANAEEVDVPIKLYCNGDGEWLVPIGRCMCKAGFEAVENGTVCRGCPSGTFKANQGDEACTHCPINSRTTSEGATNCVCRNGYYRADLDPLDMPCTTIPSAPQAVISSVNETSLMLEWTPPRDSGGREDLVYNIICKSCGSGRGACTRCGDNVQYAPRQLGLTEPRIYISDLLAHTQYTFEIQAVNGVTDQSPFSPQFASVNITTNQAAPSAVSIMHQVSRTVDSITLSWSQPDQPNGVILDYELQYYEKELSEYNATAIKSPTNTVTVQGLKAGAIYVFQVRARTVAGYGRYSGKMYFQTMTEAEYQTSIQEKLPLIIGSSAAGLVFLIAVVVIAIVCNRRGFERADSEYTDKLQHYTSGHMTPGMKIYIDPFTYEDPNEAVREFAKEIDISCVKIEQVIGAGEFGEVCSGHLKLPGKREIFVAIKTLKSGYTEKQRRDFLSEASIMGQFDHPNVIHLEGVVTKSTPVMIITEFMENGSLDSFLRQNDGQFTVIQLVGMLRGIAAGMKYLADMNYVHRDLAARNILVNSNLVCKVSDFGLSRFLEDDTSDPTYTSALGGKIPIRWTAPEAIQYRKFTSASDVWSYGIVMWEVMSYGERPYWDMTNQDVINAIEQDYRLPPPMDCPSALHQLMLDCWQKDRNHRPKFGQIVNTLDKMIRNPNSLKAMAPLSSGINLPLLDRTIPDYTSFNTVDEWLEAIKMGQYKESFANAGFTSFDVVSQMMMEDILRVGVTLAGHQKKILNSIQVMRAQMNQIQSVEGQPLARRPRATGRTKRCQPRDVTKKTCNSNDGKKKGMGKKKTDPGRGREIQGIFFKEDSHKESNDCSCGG
# assay: phosphorylation enrichment, bacterial display (enrichment ratio); higher = better substrate or ligand; peptides without Tyr show the background

Examples with their reported phosphorylation enrichment follow.
Specify measured phosphorylation enrichment for SEVVPYEPPEV [TP53_Y220_V216E] .
0.621

State its phosphorylation enrichment for this sequence: GYDHSYYFIAT [ESD_Y262]
1.24

Look up and report measured phosphorylation enrichment for this entry: EYQKKYSDADI [CKAP5_Y1860_K1857Q]
0.481

Answer with reported phosphorylation enrichment of GLRYGYGVLGG [KRTAP20-2_Y15]
0.398

For SSPRRYTIAAL [TTR_Y125_G121S] , write its phosphorylation enrichment.
0.374

Continuing:
Write down phosphorylation enrichment measured for item IFGVSYGEFRF [CFTR_Y512_D513G_YF]
0.561

Please look at this sequence and report its phosphorylation enrichment: SPYMLYQYLKQ [RPAP3_Y567_D564Y]
11.4

Indicate its recorded phosphorylation enrichment; the sequence in question is AARVSYRLASG [DCHS1_Y1582]
0.49

Given the sequence TQNAVYSAANF [DDX5_Y535_G533A_YF] , write its reported phosphorylation enrichment.
4.24

Please supply the value of reported phosphorylation enrichment for the item KVNKIYHPDFI [LIG3_Y767_Y768H]
0.417

Note down phosphorylation enrichment recorded for ISSLPYMKMIF [SLC4A11_Y853_M848I]
0.547

Quick one: give measured phosphorylation enrichment for AEQEEYSAMRD [NRAS_Y64_G60E]
0.566

Retrieve phosphorylation enrichment measured for FFFDLYGGEKF [PTPN11_Y66_D61Y_YF] and print it.
0.418

Please indicate phosphorylation enrichment recorded for PKKKQYTSIHH [APP_Y728_L723P]
0.646

* * *

# tested-system: Grb2 SH2 (UniProt P62993)
# Sequence (P62993 whole entry, looked up): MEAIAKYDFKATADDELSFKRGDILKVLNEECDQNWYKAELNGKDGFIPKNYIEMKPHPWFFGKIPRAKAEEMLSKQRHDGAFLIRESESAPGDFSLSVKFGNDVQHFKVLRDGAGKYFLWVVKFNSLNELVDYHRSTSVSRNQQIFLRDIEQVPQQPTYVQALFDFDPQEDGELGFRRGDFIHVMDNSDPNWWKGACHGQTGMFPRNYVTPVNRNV
# assay: SH2 binding enrichment of the phosphorylated peptide, bacterial display (enrichment ratio); higher = better substrate or ligand; peptides without Tyr show the background
observation-type: SH2 binding enrichment
# print the numeric value only

Worked cases, SH2 binding enrichment given:
Give me measured SH2 binding enrichment, please, for this sequence: DIDKIYIRTGI [PIK3CA_Y355_V356I]
0.857

Entry KAALSYVSEIG [BPIFB2_Y36] needs its SH2 binding enrichment filled in; supply it.
0.914

Give SH2 binding enrichment for GKTQQYECKWF [BCR_Y751_D752E_YF]
0.694

State, in one line, measured SH2 binding enrichment of LRYDSYSSYCN [SLC20A2_Y433]
0.65

Tell me its SH2 binding enrichment given TYGQVYKGPHV [TNIK_Y40_R43P] as the entry.
0.702

---
State, in one line, measured SH2 binding enrichment of LKMLVYMDMSK [LRRC7_Y234_L235M]
0.849

Provide one value: measured SH2 binding enrichment of LAVNPYGPPDP
0.934

* * *

# tested-system: Fes (UniProt P07332)
# Sequence (P07332 whole entry, looked up): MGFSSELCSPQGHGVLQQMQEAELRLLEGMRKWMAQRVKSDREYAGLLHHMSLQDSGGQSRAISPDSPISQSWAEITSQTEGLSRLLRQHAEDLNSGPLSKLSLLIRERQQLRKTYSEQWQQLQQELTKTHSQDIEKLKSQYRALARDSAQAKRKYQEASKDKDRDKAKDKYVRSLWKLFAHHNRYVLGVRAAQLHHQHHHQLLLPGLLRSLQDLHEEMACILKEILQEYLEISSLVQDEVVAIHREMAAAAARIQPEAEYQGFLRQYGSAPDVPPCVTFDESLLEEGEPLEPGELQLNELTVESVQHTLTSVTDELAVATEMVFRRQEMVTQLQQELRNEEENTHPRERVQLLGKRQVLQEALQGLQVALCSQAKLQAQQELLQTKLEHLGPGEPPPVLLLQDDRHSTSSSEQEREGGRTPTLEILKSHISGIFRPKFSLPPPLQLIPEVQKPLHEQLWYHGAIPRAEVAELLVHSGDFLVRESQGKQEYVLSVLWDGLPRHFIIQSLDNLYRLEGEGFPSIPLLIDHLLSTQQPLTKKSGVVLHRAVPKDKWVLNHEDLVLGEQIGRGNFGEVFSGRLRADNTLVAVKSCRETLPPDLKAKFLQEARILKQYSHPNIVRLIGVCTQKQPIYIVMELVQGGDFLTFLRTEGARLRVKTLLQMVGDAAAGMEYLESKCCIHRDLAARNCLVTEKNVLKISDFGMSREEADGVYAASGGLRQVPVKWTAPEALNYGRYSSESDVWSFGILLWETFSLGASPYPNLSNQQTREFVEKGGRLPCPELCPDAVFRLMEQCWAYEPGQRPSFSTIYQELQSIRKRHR
# assay: phosphorylation enrichment, bacterial display (enrichment ratio); higher = better substrate or ligand; peptides without Tyr show the background
observation-type: phosphorylation enrichment
Could you keep your reply to the number by itself?

Record excerpt, results attached:
Give recorded phosphorylation enrichment. SLDHPFEKPRK [INAVA_Y333_Y333F]
0.749

Indicate the recorded phosphorylation enrichment value for this sequence: ELPEKYSQNIC [PKP2_Y626_Y631C]
1.12

// fetch phosphorylation enrichment given entry RAILLYEYVGK [NATD1_Y45_V42I]
7.22

Return phosphorylation enrichment (reported value) for this sequence: NTFEKYWPFFQ [GATM_Y103_YF]
1.09

---
Annotate the sequence VVEDGYEFFAK [PPP1CB_Y254] with its measured phosphorylation enrichment.
0.988

Quote phosphorylation enrichment reported for GHNDVYISKHV [GRIN2A_Y1423_E1426K] please.
0.536

Respond only with phosphorylation enrichment recorded for ADARMYGVLPR [PLP1_Y207_W212R]
0.467

Return phosphorylation enrichment (reported value) for this sequence: HNLDYYKETTN [FGFR3_Y648_K650E]
1.06

Complete the entry with phosphorylation enrichment for ELTAKYLNFFQ [P3H4_Y181_YF]
1.05
